# Tested on: E. coli
# Run Description: AST by flow cytometry type counting of individual bacteria (Aquila 400), MIC from differential growth
# Type: cell-based
# Run Parameters: Escherichia coli, 6 h, Aquila 400 counting; cut-off 20%; 6 hours; read-out: MIC, 6 hours
Quantity Measured: MIC

Prompt: Output MIC of O=C(O)c1cn(C2CC2)c2cc(N3CCNCC3)c(F)cc2c1=O
Completion: 0.004 µg/mL

Prompt: Output MIC of CO/N=C(\C(=O)N[C@@H]1C(=O)N2C(C(=O)O)=C(COC(C)=O)CS[C@H]12)c1csc(N)n1
Completion: 0.03 µg/mL

Prompt: Output MIC of CC(C)(O/N=C(\C(=O)N[C@@H]1C(=O)N2C(C(=O)[O-])=C(C[n+]3ccccc3)CS[C@H]12)c1csc(N)n1)C(=O)O
Completion: 0.125 µg/mL

Prompt: Output MIC of C[C@@H](O)[C@H]1C(=O)N2C(C(=O)O)=C(S[C@@H]3CN[C@H](C(=O)N(C)C)C3)[C@H](C)[C@H]12
Completion: 0.25 µg/mL
